Protein target, amino acids: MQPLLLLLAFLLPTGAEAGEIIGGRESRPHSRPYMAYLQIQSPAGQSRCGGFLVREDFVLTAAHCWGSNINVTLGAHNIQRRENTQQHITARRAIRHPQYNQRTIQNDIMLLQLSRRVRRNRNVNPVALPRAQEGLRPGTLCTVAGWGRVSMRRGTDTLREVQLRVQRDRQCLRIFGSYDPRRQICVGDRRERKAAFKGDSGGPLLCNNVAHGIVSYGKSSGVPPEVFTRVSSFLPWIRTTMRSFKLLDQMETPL
Bridge positions count the residues as written; N and C are the ends. Square brackets hold non-standard residues; d marks the D form. Peptide text beside a SMILES is read from it. Bip = N[C@@H](Cc1ccc(-c2ccccc2)cc1)C(=O)O; Phe(4-I) = N[C@@H](Cc1ccc(I)cc1)C(=O)O; Phe(4-Me) = Cc1ccc(C[C@H](N)C(=O)O)cc1
readoutType: pKi
Give only the number. pKi is defined as minus log10 of concentration in molar units.

The examples below pair each entry with its known result.
[[record]]
molecule = "Cc1ccc(C[C@@H]2NC(=O)[C@H](CCC(N)=O)NC(=O)[C@@H]3CSSC[C@H](NC(=O)[C@H](CCC(=O)O)NC(=O)[C@@H]4CCCN4C(=O)[C@@H]4CCCN4C(=O)[C@H](CCC(=O)O)NC(=O)[C@H](CO)NC2=O)C(=O)N[C@@H](Cc2ccccc2)C(=O)N2CCC[C@H]2C(=O)N[C@@H](CC(=O)O)C(=O)NCC(=O)N[C@@H](CCCNC(=N)N)C(=O)N3)cc1 (cyclo(CFPDGRCQ[Phe(4-Me)]SEPPE); disulfide 1-7)"
measurednumber = 6.80

[[record]]
molecule = "C[C@@H](O)[C@@H]1NC(=O)[C@@H]2CSSC[C@H](NC(=O)[C@H](CCC(=O)O)NC(=O)[C@@H]3CCCN3C(=O)[C@@H]3CCCN3C(=O)[C@H](CCC(=O)O)NC(=O)[C@H](CO)NC(=O)[C@H](Cc3ccc(O)cc3)NC1=O)C(=O)N[C@@H](Cc1ccccc1)C(=O)N1CCC[C@H]1C(=O)N[C@@H](CC(=O)O)C(=O)NCC(=O)N[C@@H](CCCNC(=N)N)C(=O)N2 (cyclo(CFPDGRCTYSEPPE); disulfide 1-7)"
measurednumber = 7.85


// query Tell us which pKi value is on record for N=C(N)NCCC[C@@H]1NC(=O)CNC(=O)[C@H](CC(=O)O)NC(=O)[C@@H]2CCCN2C(=O)[C@H](Cc2ccccc2)NC(=O)[C@@H]2CSSC[C@H](NC1=O)C(=O)N[C@@H](CCC(N)=O)C(=O)N[C@@H](Cc1ccc(I)cc1)C(=O)N[C@@H](CO)C(=O)N[C@@H](CCC(=O)O)C(=O)N1CCC[C@H]1C(=O)N1CCC[C@H]1C(=O)N[C@@H](CCC(=O)O)C(=O)N2 (cyclo(CFPDGRCQ[Phe(4-I)]SEPPE); disulfide 1-7)
// result 5.92

// query Tell us which pKi value is on record for N=C(N)NCCC[C@@H]1NC(=O)CNC(=O)[C@H](CC(=O)O)NC(=O)[C@@H]2CCCN2C(=O)[C@H](Cc2ccccc2)NC(=O)[C@@H]2CSSC[C@H](NC1=O)C(=O)N[C@@H](CCC(N)=O)C(=O)N[C@@H](Cc1ccc(O)cc1)C(=O)N[C@@H](CO)C(=O)N[C@@H](CCC(=O)O)C(=O)N1CCC[C@H]1C(=O)N1CCC[C@H]1C(=O)N[C@@H](CCC(=O)O)C(=O)N2 (cyclo(CFPDGRCQYSEPPE); disulfide 1-7)
// result 7.27

// query Tell us which pKi value is on record for CC[C@H](C)[C@@H]1NC(=O)[C@@H]2CCCN2C(=O)[C@@H]2CCCN2C(=O)[C@H](Cc2ccc(-c3ccccc3)cc2)NC(=O)[C@H](CO)NC(=O)[C@H](Cc2ccc(O)cc2)NC(=O)[C@H](C)NC(=O)[C@@H]2CSSC[C@H](NC1=O)C(=O)N[C@@H](Cc1ccccc1)C(=O)N1CCC[C@H]1C(=O)N[C@@H](CC(=O)O)C(=O)NCC(=O)N[C@@H](Cc1ccccc1)C(=O)N2 (cyclo(AYS[Bip]PPICFPDGFC); disulfide 8-14)
// result 8.13
